- Tested on: HIEC-6 cells
- protocol_notes: MTT viability assay, 2D culture
- Format: cell-based
- protocol_conditions: Homo sapiens, HIEC-6
endpoint: IC50

Return IC50 for the following compound: CCCCCC(CC(=O)CCc1ccc(O)c(OC)c1)SCC(NC(=O)CCC(N)C(=O)O)C(=O)NCC(=O)O (stereo not shown) [M13, 5-glutathione-6-shogaol]
> 100 µM

---

- Tested on: NF-κB signaling pathway
- protocol_notes: NF-κB-dependent luciferase activity in NF-κB/293/GFP-Luc cells treated with TNF-α
- Assay type: cell-based
- protocol_conditions: MLY compounds; TNF-α 10 ng/ml, 18 hours
Label MET when RLU (% with TNFα) is at or above 50%; anything below gets NOT MET.

>  <compound>
CCCCCC(CC(=O)CCc1ccc(O)c(OC)c1)SC[C@H](NC(=O)[C@@H](N)CC(=O)O)C(=O)N[C@@H](CCSC)C(=O)O (stereo partly drawn)

>  <experimental_system>
NF-κB signaling pathway

>  <class_assignment>
NOT MET

$$$$
>  <compound>
CCCCCC(CC(=O)CCc1ccc(O)c(OC)c1)SC[C@H](NC(=O)[C@@H](N)CC(=O)O)C(=O)N[C@@H](CC(C)C)C(=O)O (stereo partly drawn)

>  <experimental_system>
NF-κB signaling pathway

>  <class_assignment>
NOT MET

$$$$
>  <compound>
CCCCCC(CC(=O)CCc1ccc(O)c(OC)c1)SC[C@H](NC(=O)[C@@H](N)CCC(=O)O)C(=O)N1CCC[C@H]1C(=O)O (stereo partly drawn)

>  <experimental_system>
NF-κB signaling pathway

>  <class_assignment>
NOT MET

$$$$
>  <compound>
CCCCCC(CC(=O)CCc1ccc(O)c(OC)c1)SC[C@H](NC(=O)[C@@H](N)CC(=O)O)C(=O)N[C@@H](Cc1ccc(O)cc1)C(=O)O (stereo partly drawn)

>  <experimental_system>
NF-κB signaling pathway

>  <class_assignment>
NOT MET

$$$$
>  <compound>
CCCCCC(CC(=O)CCc1ccc(O)c(OC)c1)SC[C@H](NC(=O)[C@@H](N)CCC(=O)O)C(=O)N[C@@H](C)C(=O)O (stereo partly drawn)

>  <experimental_system>
NF-κB signaling pathway

>  <class_assignment>
NOT MET

$$$$
>  <compound>
CCCCCC(CC(=O)CCc1ccc(O)c(OC)c1)SC[C@H](NC(=O)[C@@H](N)CCC(=O)O)C(=O)N[C@H](C(=O)O)C(C)C (stereo partly drawn)

>  <experimental_system>
NF-κB signaling pathway

>  <class_assignment>
NOT MET

$$$$
>  <compound>
CCCCCC(CC(=O)CCc1ccc(O)c(OC)c1)SC[C@H](NC(=O)[C@@H](N)CC(=O)O)C(=O)N[C@@H](C)C(=O)O (stereo partly drawn)

>  <experimental_system>
NF-κB signaling pathway

>  <class_assignment>
MET

$$$$
>  <compound>
CCCCCC(CC(=O)CCc1ccc(O)c(OC)c1)SC[C@H](NC(=O)[C@@H](N)CCC(=O)O)C(=O)N[C@@H](Cc1ccccc1)C(=O)O (stereo partly drawn)

>  <experimental_system>
NF-κB signaling pathway

>  <class_assignment>
NOT MET

$$$$

Now look at this entry.
// inclusive: RLU (% with TNFα) at least 50%? input: CCCCCC(CC(=O)CCc1ccc(O)c(OC)c1)SC[C@H](NC(=O)[C@@H](N)CC(=O)O)C(=O)NCC(=O)O (stereo partly drawn)
MET
